Reference source: ChEMBL document CHEMBL4689842

# System: Fibroblast
# ASSAY_PROTOCOL: Multiplex assay against human fibroblast
# Assay type: toxicity, cell-based
# EXPERIMENTAL_SETUP: 12 h, 1 µM, compound concentration 1 uM, replicate 2
MEASURE: Population Normal (%)
Number only, in %; omit the unit.

Some compounds with recorded Population Normal (%):
# COMPOUND, TESTED_SYSTEM, Population Normal (%)
rows = [
    ("CN1C(=O)[C@@H](NC(=O)c2cc3ccccc3[nH]2)N=C(c2ccccc2)c2ccccc21 [DEVAZEPIDE]", "Fibroblast", 94),
    ("N#Cc1cccc(C(=O)Nc2cc(-c3ccccc3)nn2-c2ccccc2)c1", "Fibroblast", 96),
    ("N#CCNC(=O)c1ccc(-c2ccnc(Nc3ccc(N4CCOCC4)cc3)n2)cc1", "Fibroblast", 91),
    ("Cc1c(Nc2ccc(S(=O)(=O)N3CCN(C)CC3)cc2F)nc2ccc(Nc3cnn(C4CC4)c3)cn2c1=O", "Fibroblast", 59),
]

Next compound, please.
Which Population Normal (%) reading was recorded for the compound CN(c1cc(C(F)(F)F)nc(OCCC(=O)O)n1)c1cccc2c1CCC2 ? 87
